molecular target: Matrix metalloproteinase-9 (Homo sapiens, UniProt P14780, Q279R); test: Inhibition of human recombinant MMP-9 (20 to 707 residues) Gln279Arg mutant expressed in CHO cells using (7-methoxycoumarin-4-y1)-acetyl-Pro-Leu-Gly-Leu-[3-(2,4-dinitropheny1)-L-2,3-diaminopropionyl]-Ala-Arg-NH2 as substrate preincubated with enzyme for 30 mins followed by substrate addition and measured after 10 mins by fluorescence based analysis
Sequence (P14780 107-707 Q279R limits assumed): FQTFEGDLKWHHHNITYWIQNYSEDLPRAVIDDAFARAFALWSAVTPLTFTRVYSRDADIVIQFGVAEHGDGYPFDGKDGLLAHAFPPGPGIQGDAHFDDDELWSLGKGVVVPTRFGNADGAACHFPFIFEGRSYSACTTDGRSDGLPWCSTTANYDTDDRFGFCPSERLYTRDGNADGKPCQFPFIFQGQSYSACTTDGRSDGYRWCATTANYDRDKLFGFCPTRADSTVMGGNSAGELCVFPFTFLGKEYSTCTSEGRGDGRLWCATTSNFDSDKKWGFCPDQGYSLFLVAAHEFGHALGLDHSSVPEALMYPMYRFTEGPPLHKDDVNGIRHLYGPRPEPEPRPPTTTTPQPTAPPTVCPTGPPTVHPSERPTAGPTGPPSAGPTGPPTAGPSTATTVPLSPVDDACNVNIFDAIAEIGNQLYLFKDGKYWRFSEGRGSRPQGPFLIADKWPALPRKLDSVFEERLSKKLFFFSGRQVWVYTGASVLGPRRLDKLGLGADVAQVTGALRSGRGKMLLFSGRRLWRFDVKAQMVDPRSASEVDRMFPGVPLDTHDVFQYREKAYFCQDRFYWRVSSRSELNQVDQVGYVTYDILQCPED
pIC50: −log10 of the molar value.
measure: pIC50

• CCCN([C@@H](C(=O)O)C(C)C)S(=O)(=O)c1ccc(-c2nc(-c3ccc(C)s3)no2)cc1 = 7.04

P = Cc1ccc(-c2noc(-c3ccc(S(=O)(=O)N(Cc4ccccc4)[C@@H](C(=O)O)C(C)C)cc3)n2)s1
Q = Cc1ccc(-c2noc(-c3ccc(S(=O)(=O)N(CCF)[C@@H](C(=O)O)C(C)C)cc3)n2)s1
Query block: Please tell me which of the two, P or Q , has the higher reported pIC50 value. Field: selected label. Fill in the label of the entry you choose.
Result block: Q
(Q: 7.47, P: 7.02)
